Measured values drawn from patent US20050142531A1 for this set.

Would you kindly list pka A (acidic pKa) for each of these molecules?
METHOD_NOTES: pKa, pI and % salt of peptidic buffers
Format: physicochemical
MEASUREMENT_CONTEXT: Table 2, first acidic pKa
Peptide text beside a SMILES is read from it.
Answers are plain numbers.

[[record]]
molecule = "N[C@@H](Cc1c[nH]cn1)C(=O)N[C@@H](Cc1ccccc1)C(=O)O [His-Phe] (H-His-Phe-OH; N-terminus and C-terminus assumed)"
measured_number = 2.88


For every item below, please supply its pka A (acidic pKa).
1. CC(C)C[C@H](NC(=O)[C@@H](N)Cc1c[nH]cn1)C(=O)O [His-Leu] (H-His-Leu-OH; N-terminus and C-terminus assumed)
2. N[C@@H](Cc1c[nH]c2ccccc12)C(=O)N[C@@H](Cc1c[nH]cn1)C(=O)O [Trp-His] (H-Trp-His-OH; N-terminus and C-terminus assumed)
3. NCCCC[C@H](N)C(=O)N[C@@H](Cc1c[nH]cn1)C(=O)O
4. NC(=O)C[C@H](N)C(=O)N[C@@H](Cc1c[nH]cn1)C(=O)O [Asn-His] (H-Asn-His-OH; N-terminus and C-terminus assumed)
5. N=C(N)NCCC[C@H](N)C(=O)N[C@@H](CCC(=O)O)C(=O)O [Arg-Glu] (H-Arg-Glu-OH; N-terminus and C-terminus assumed)

Output:
1. 3.10
2. 2.42
3. 2.42
4. 2.42
5. 2.74

----------
METHOD_NOTES: Conductivities and solubilities of selected multipeptides at their pI
Format: physicochemical
MEASUREMENT_CONTEXT: at pI
Peptide text beside a SMILES is read from it.
Would you kindly list Solubility for each of these compounds?
Numbers only, in mM.

A selection of reference data follows.
[[record]]
compound = "NCC(=O)N[C@@H](Cc1c[nH]cn1)C(=O)O [Gly-His] (H-Gly-His-OH; N-terminus and C-terminus assumed)"
measured_number = 1000

[[record]]
compound = "NCCCC[C@H](NC(=O)[C@@H](N)CCC(=O)O)C(=O)O [Glu-Lys] (H-Glu-Lys-OH; N-terminus and C-terminus assumed)"
measured_number = 1000


The recorded Solubility for N[C@@H](Cc1c[nH]cn1)C(=O)NCC(=O)O [His-Gly] (H-His-Gly-OH; N-terminus and C-terminus assumed) is 1000

----------
Would you kindly list pka B (basic pKa) for each of these molecules?
METHOD_NOTES: pKa, pI and % salt of peptidic buffers
Assay type: physicochemical
MEASUREMENT_CONTEXT: Table 2, first basic pKa
Peptide text beside a SMILES is read from it.
Give bare numbers.

A selection of reference data follows.
[[record]]
molecule = "C[C@@H](O)[C@H](NC(=O)[C@@H](N)Cc1c[nH]cn1)C(=O)O [His-Thr] (H-His-Thr-OH; N-terminus and C-terminus assumed)"
test_readout = "pka B (basic pKa)"
measured_number = 6.10

[[record]]
molecule = "N[C@@H](Cc1c[nH]cn1)C(=O)N[C@@H](CO)C(=O)O [His-Ser] (H-His-Ser-OH; N-terminus and C-terminus assumed)"
test_readout = "pka B (basic pKa)"
measured_number = 6.10

[[record]]
molecule = "CC(C)[C@H](N)C(=O)N[C@@H](Cc1c[nH]cn1)C(=O)O [Val-His] (H-Val-His-OH; N-terminus and C-terminus assumed)"
test_readout = "pka B (basic pKa)"
measured_number = 6.83

[[record]]
molecule = "O=C(O)[C@H](Cc1c[nH]cn1)NC(=O)[C@@H]1CCCN1"
test_readout = "pka B (basic pKa)"
measured_number = 6.71

[[record]]
molecule = "C[C@H](NC(=O)[C@@H](N)Cc1c[nH]cn1)C(=O)O [His-Ala] (H-His-Ala-OH; N-terminus and C-terminus assumed)"
test_readout = "pka B (basic pKa)"
measured_number = 6.10

[[record]]
molecule = "NCC(=O)N[C@@H](CC(=O)O)C(=O)O [Gly-Asp] (H-Gly-Asp-OH; N-terminus and C-terminus assumed)"
test_readout = "pka B (basic pKa)"
measured_number = 8.60

[[record]]
molecule = "NCC(=O)N[C@@H](Cc1c[nH]cn1)C(=O)O [Gly-His] (H-Gly-His-OH; N-terminus and C-terminus assumed)"
test_readout = "pka B (basic pKa)"
measured_number = 6.71

[[record]]
molecule = "N[C@@H](Cc1c[nH]cn1)C(=O)N[C@@H](Cc1c[nH]cn1)C(=O)O"
test_readout = "pka B (basic pKa)"
measured_number = 5.40

[[record]]
molecule = "Cn1cncc1C[C@H](NC(=O)CCN)C(=O)O"
test_readout = "pka B (basic pKa)"
measured_number = 7.04

[[record]]
molecule = "N[C@@H](CO)C(=O)N[C@@H](Cc1c[nH]cn1)C(=O)O [Ser-His] (H-Ser-His-OH; N-terminus and C-terminus assumed)"
test_readout = "pka B (basic pKa)"
measured_number = 6.71


For every item below, please supply its pka B (basic pKa).
1. N[C@@H](Cc1c[nH]cn1)C(=O)N[C@@H](Cc1c[nH]c2ccccc12)C(=O)O
2. N[C@@H](Cc1c[nH]cn1)C(=O)NCC(=O)O [His-Gly] (H-His-Gly-OH; N-terminus and C-terminus assumed)
3. N[C@@H](Cc1ccccc1)C(=O)N[C@@H](Cc1c[nH]cn1)C(=O)O [Phe-His] (H-Phe-His-OH; N-terminus and C-terminus assumed)
4. CC(C)C[C@H](NC(=O)[C@@H](N)Cc1c[nH]cn1)C(=O)O [His-Leu] (H-His-Leu-OH; N-terminus and C-terminus assumed)

Output:
[6.10, 5.90, 6.71, 6.10]
